assay: Initial plasma concentration in CD-1 mouse at 5 mg/kg, iv; format: ADME, organism-based; design: dose 5 mg/kg, route intravenous
Quantity kind: C0 (ng/mL)
Give bare numbers, in ng/mL.

The molecule identified as COc1cc(C(=O)c2ccn(-c3cccc(N)c3)c2)cc(OC)c1OC registered its C0 at 4150

* * *

test: cells; settings: Homo sapiens, HCT-15, 72 h
Description: Cytotoxicity against human HCT15 cells assessed as growth inhibition after 72 hrs by CellTitre-Glo assay
Quantity kind: pIC50
One number for each entry, as −log10 of the molar value.

The compound identified as COc1ccc(/C=C\c2cc(OC)c(OC)c(OC)c2)cc1O registered its pIC50 at 7.41

* * *

target: Tubulin; assay: Inhibition of tubulin (unknown origin) polymerization incubated 15 mins prior to GTP addition by spectrophotometry
Quantity kind: IC50 (nM)
Answers are plain numbers, in nM.

Here are 9 compounds together with their reported answers.
| Smiles str | Readout units | Numeric value |
| --- | --- | --- |
| COc1ccc(-n2ccc(C(=O)c3cc(OC)c(OC)c(OC)c3)c2)cc1OC | nM | 2100 |
| COc1cc(C(=O)c2ccn(-c3cccc(OC(C)C)c3)c2)cc(OC)c1OC | nM | 2500 |
| COc1cc(C(=O)c2ccn(-c3cccc(O)c3)c2)cc(OC)c1OC | nM | 1200 |
| COc1cc(C(=O)c2ccn(-c3cccc(NS(C)(=O)=O)c3)c2)cc(OC)c1OC | nM | 860 |
| COc1cc(C(=O)c2ccn(-c3ccccc3F)c2)cc(OC)c1OC | nM | 1000 |
| COc1cc(C(=O)c2ccn(-c3ccc(N)cc3)c2)cc(OC)c1OC | nM | 1300 |
| COc1cccc(-n2ccc(C(=O)c3cc(OC)c(OC)c(OC)c3)c2)c1 | nM | 1800 |
| COc1cc(C(=O)c2ccn(-c3ccccc3Cl)c2)cc(OC)c1OC | nM | 8800 |
| COc1cc(C(=O)c2ccn(-c3ccccc3)c2)cc(OC)c1OC | nM | 1500 |

From here, focus on the item given below.
Tubulin IC50 of COc1ccc(-n2ccc(C(=O)c3cc(OC)c(OC)c(OC)c3)c2)cc1 is 1200

* * *

molecular target: Tubulin; experiment: Inhibition of tubulin (unknown origin) polymerization incubated 15 mins prior to GTP addition by spectrophotometry
Quantity kind: pIC50
Numbers only, as −log10 of the molar value.

Here are 5 compounds together with their reported answers.
| Smiles str | pIC50 |
| --- | --- |
| COc1cc(C(=O)c2ccn(-c3cccc(NC(C)C)c3)c2)cc(OC)c1OC | 5.60 |
| COc1ccccc1-n1ccc(C(=O)c2cc(OC)c(OC)c(OC)c2)c1 | 5.57 |
| COc1cc(C(=O)c2ccn(S(=O)(=O)c3ccccc3)c2)cc(OC)c1OC | 4.80 |
| COc1cc(C(=O)c2ccn(-c3cccc(F)c3)c2)cc(OC)c1OC | 5.68 |
| COc1cc(C(=O)c2ccn(-c3cccc([N+](=O)[O-])c3)c2)cc(OC)c1OC | 5.05 |

Batch of 4 compounds: report pIC50 for each.
1. COc1cc(C(=O)c2ccn(-c3ccc(F)cc3)c2)cc(OC)c1OC
2. COc1cc(C(=O)c2ccn(-c3ccccc3C)c2)cc(OC)c1OC
3. COc1cc(C(=O)c2ccn(-c3cccc(-n4cccc4)c3)c2)cc(OC)c1OC
4. COc1cc(C(=O)c2ccn(-c3cccc(N)c3)c2)cc(OC)c1OC

1: 5.85; 2: 4.89; 3: 5.60; 4: 5.85

The values you see were collected from ChEMBL document CHEMBL3351435.
